Quick record of Ki values for human histamine H3 receptor (Homo sapiens).

# molecule OCc1cc2ccccc2n1-c1ccc(OCCCN2CCCC2)cc1 [Example 31] ; its Ki = < 10 nM

# molecule COCc1cc2cc(OC)ccc2n1-c1ccc(OCCCN2CCCC2)cc1 [Example 42] ; its Ki = < 10 nM

# molecule c1ccc2c(c1)cc(COC1CCCCC1)n2-c1ccc(OCCCN2CCCC2)cc1 [Example 33] ; its Ki = < 10 nM

# molecule c1ccc2c(c1)cc(COC1CCCC1)n2-c1ccc(OCCCN2CCCC2)cc1 [Example 35] ; its Ki = < 10 nM

# molecule C[C@@H]1CCCN1CCCOc1ccc(-n2c(C(=O)NC3CCCCCC3)cc3ccccc32)cc1 [Example 22] ; its Ki = < 100 nM

# molecule CCOC(=O)c1cc2ccccc2n1-c1ccc(OCCCN2CCCC2)cc1 [Example 30] ; its Ki = < 10 nM

# molecule Cc1cc2ccccc2n1-c1ccc(OCCCN2CCC[C@H]2C)cc1 [Example 3] ; its Ki = < 10 nM

# molecule C[C@@H]1CCCN1CCCOc1ccc(-n2c(C(=O)NC3CCC3)cc3ccccc32)cc1 [Example 19] ; its Ki = < 10 nM

# molecule C[C@@H]1CCCN1CCCOc1ccc(-n2c(C(=O)N3CCOCC3)cc3ccccc32)cc1 [Example 25] ; its Ki = < 10 nM

# molecule Cc1cc2ccccc2n1-c1ccc(OCCCN2CCCCC2)cc1 [Example 2] ; its Ki = < 10 nM

# molecule Cc1ccc2c(c1)cc(C)n2-c1ccc(OCCCN2CCCC2)cc1 [Example 11] ; its Ki = < 100 nM

# molecule CCCc1cc2ccccc2n1-c1ccc(OCCCN2CCCC2)cc1 [Example 38] ; its Ki = < 10 nM

# molecule C[C@@H]1CCCN1CCCOc1ccc(-n2c(C(=O)NCC3CCCCC3)cc3ccccc32)cc1 [Example 28] ; its Ki = < 10 nM
